The entries below come with measured IC50 values attached.
target: NMDA receptor (NR1 + NR2 subunits) (Rattus norvegicus, UniProt P35439+Q00960); assay: Two electrode voltage clamp recording from Xenopus laevis oocytes (pH dependence of NMDA antagonism); assay type: cell-based; conditions: pH 7.6; Table 18; read-out: IC50 at pH 7.6
Sequence (Q00960 27-1482, other chains not shown): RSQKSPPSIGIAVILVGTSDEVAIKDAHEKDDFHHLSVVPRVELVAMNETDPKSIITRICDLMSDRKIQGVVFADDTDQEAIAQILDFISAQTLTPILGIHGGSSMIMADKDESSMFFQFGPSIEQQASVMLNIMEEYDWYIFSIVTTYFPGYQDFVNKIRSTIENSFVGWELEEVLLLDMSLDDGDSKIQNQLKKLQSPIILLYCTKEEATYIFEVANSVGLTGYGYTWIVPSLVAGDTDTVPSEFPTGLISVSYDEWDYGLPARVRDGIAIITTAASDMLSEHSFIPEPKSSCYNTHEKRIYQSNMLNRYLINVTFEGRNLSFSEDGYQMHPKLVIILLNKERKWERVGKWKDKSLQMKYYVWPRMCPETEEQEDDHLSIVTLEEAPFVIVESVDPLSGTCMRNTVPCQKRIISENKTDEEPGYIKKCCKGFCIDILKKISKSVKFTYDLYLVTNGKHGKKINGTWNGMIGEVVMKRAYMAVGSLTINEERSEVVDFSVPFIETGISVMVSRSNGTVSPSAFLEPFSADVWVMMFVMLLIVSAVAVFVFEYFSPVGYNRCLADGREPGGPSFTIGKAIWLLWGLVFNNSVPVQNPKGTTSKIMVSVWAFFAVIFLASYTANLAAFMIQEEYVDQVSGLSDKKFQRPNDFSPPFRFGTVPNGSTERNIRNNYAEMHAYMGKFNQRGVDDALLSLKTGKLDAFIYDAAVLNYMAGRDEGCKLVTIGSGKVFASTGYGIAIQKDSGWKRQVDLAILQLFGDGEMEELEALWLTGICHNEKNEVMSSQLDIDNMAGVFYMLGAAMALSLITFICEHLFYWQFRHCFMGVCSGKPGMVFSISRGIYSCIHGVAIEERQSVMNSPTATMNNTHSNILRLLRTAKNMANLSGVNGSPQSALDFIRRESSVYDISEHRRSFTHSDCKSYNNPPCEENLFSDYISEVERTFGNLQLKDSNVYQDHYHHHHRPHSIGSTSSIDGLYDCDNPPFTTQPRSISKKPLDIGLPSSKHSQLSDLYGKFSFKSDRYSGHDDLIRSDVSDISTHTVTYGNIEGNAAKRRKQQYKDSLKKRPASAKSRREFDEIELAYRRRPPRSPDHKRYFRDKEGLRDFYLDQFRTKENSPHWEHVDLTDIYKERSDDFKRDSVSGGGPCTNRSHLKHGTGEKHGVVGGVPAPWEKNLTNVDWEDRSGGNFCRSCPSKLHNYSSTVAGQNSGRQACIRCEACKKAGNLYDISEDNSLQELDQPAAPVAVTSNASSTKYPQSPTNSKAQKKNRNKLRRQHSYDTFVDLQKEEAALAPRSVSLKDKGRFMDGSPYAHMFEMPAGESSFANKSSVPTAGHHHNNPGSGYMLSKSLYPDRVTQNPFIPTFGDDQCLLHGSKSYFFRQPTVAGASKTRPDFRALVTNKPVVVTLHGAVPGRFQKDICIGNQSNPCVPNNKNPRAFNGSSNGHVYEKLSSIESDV
Enter your answer as a number in nM; do not include the unit.

Cc1ccc(N2CCN(C[C@@H](O)COc3ccc4[nH]c(=O)oc4c3)CC2)cc1    644
O=c1[nH]c2ccc(OC[C@H](O)CN3CCN(c4ccc(F)c(F)c4)CC3)cc2o1    1700
O=c1[nH]c2ccc(OCC(O)CNCCNc3ccc(Cl)cc3)cc2o1 (stereo not drawn)    97
O=c1[nH]c2ccc(OCC(O)CN3CCN(c4ccc(Cl)cc4)CC3)cc2o1 (stereo not drawn)    726
O=c1[nH]c2ccc(OCC(O)CNCCc3ccc(Cl)c(Cl)c3)cc2o1 (stereo not drawn)    446

[Q] For `O=c1[nH]c2ccc(OC[C@H](O)CN3CCN(c4ccc(Cl)c(Cl)c4)CC3)cc2o1` , write its IC50.
[A] 1500

---

assay: Plasma half-life (i.v./i.p. pharmacokinetics, Table 23); assay type: in vivo, Rats; settings: rat, iv, 1 mg/kg, 1 MPK i.v.
Threshold check on Cmax: strictly below 500 ng/mL is Satisfied; on or above 500 ng/mL is Not satisfied.

Record excerpt, results attached:
NC(=O)Nc1ccc(OC[C@@H](O)CN2CCN(c3ccc(Cl)cc3)CC2)cc1 [drawing 786]    Satisfied
O=c1[nH]c2ccc(OC[C@@H](O)CN3CCN(c4ccc(Cl)cc4)CC3)cc2o1 [drawing 792]    Satisfied
Cc1ccc(N2CCN(C[C@H](O)COc3ccc4[nH]c(=O)oc4c3)CC2)cc1 [drawing 793]    Not satisfied
Oc1ccc(OC[C@@H](O)CN2CCN(c3ccc(Cl)cc3)CC2)cc1 [drawing 791]    Satisfied
O=C(COc1ccc2[nH]c(=O)[nH]c2c1)N1CCN(c2ccc(Cl)c(Cl)c2)CC1 [drawing 796]    Not satisfied

[Q] I'd appreciate it if you could check whether O=c1[nH]c2ccc(OC[C@@H](O)CN3CCN(c4ccc(F)c(F)c4)CC3)cc2[nH]1 [drawing 787] has Cmax smaller than 500 ng/mL.
[A] Satisfied

[Q] Say whether its Cmax is strictly beneath 500 ng/mL. Entry: Cc1ccc(N2CCN(C[C@H](O)COc3ccc4c(c3)CCC(=O)N4)CC2)cc1 [drawing 790]
[A] Satisfied

[Q] Input NC(=O)Nc1ccc(OC[C@@H](O)CN2CCN(c3ccc(Cl)cc3)C2=O)cc1 [drawing 794] ; condition: Cmax strictly below 500 ng/mL. Does it hold?
[A] Not satisfied

---

assay: Brain exposure (brain:plasma ratio, Table 24); format: in vivo, Rats; details: rat, brain and plasma, iv, 3 mg/kg; 3 MPK i.v.; 6 hr; read-out: RATIO: Brain:plasma (Direct)
resultType: Kp at 6 h
Write the value as a bare number.

[Q] State its Kp at 6 h: NC(=O)Nc1ccc(OC[C@@H](O)CN2CCN(c3ccc(Cl)cc3)CC2)cc1 [drawing 803]
[A] 0.49

---

assay: Brain exposure (brain:plasma ratio, Table 24); format: in vivo, Rats; details: rat, brain and plasma, iv, 3 mg/kg; 3 MPK i.v.; 1 hr; read-out: RATIO: Brain:plasma (Direct)
Measured Kp at 1 h values are reported for all entries that follow.

Consider the worked cases shown below.
Oc1ccc(OC[C@@H](O)CSc2nc3cc(Cl)c(Cl)cc3[nH]2)cc1 [drawing 808]    0.35
Cc1ccc(N2CCN(C[C@H](O)COc3ccc4[nH]c(=O)oc4c3)CC2)cc1 [drawing 801]    2.9
Oc1ccc(OC[C@@H](O)CN2CCN(c3ccc(Cl)cc3)CC2)cc1 [drawing 800]    9.5

Now, please, on to the next molecule.
[Q] Give reported Kp at 1 h value for O=C1N(C[C@H](O)COc2ccc(O)cc2)CCN1c1ccc(Cl)cc1 [drawing 804]
[A] 0.49

---

experiment: Brain exposure (brain:plasma ratio, Table 24); type: in vivo, Rats; conditions: rat, brain and plasma, ip, 10 mg/kg; 10 MPK i.p.; 30 m; read-out: RATIO: Brain:plasma (Direct)
resultType: Kp at 30 min
The reply should be a number, written without any unit.

[Q] Query Kp at 30 min for O=C(COc1ccc2[nH]c(=O)oc2c1)N1CCN(c2ccc(Cl)c(Cl)c2)CC1 [drawing 806]
[A] 0.49

---

test: Oral absorption (p.o. pharmacokinetics, Table 25); format: in vivo, Rats; details: rat, plasma, 10 mg/kg, 10 MPK, 0-8 hr p.o.
resultType: Tmax (h)
Give the number; h is assumed, so skip it.

These recorded examples may help you get a feel for the data.
NC(=O)Nc1ccc(OC[C@@H](O)CN2CCN(c3ccc(Cl)cc3)CC2)cc1 [drawing 810]    2.67
Oc1ccc(OC[C@@H](O)CN2CCN(c3ccc(Cl)cc3)CC2)cc1 [drawing 815]    5.3
O=c1[nH]c2ccc(OC[C@@H](O)CN3CCN(c4ccc(Cl)cc4)CC3)cc2o1 [drawing 814]    8

We next turn to a different molecule, shown below.
[Q] Note down Tmax recorded for Cc1ccc(N2CCN(C[C@H](O)COc3ccc4[nH]c(=O)oc4c3)CC2)cc1 [drawing 813]
[A] 6.7

---

assay: Plasma and brain exposure assessment; assay type: in vivo, Mice; conditions: mouse, plasma (free, unbound), ip; mice 10 mg/kg i.p., 30 minute; based on % free fraction measured in protein binding study; read-out: Free Plasma
The following molecules are shown together with reported concentration at 30 minute values.
Note: unit ng/mL is implicit; provide only the numeric part.

NC(=O)Nc1ccc(OC[C@@H](O)CN2CCN(c3ccc(Cl)cc3)CC2)cc1    220

[Q] Provide concentration at 30 minute value for the following molecule: `O=C1N(C[C@H](O)COc2ccc(O)cc2)CCN1c1ccc(Cl)cc1`
[A] 34

[Q] Specify concentration at 30 minute for `O=C(COc1ccc2[nH]c(=O)oc2c1)N1CCN(c2ccc(Cl)c(Cl)c2)CC1` and stop.
[A] 61

---

target: NMDA receptor (NR1 + NR2 subunits) (Rattus norvegicus, UniProt P35439+Q00960); experiment: Two electrode voltage clamp recording from Xenopus laevis oocytes (pH dependence of NMDA antagonism); format: cell-based; settings: pH 6.9; Table 19; read-out: IC50 at pH 6.9
resultType: IC50 (nM)
# value in nM; strip the unit string

For orientation, consider the following solved cases.
Oc1ccc(OCC(O)CNCCc2ccc(Cl)c(Cl)c2)cc1 (centres unmarked)    197
Cc1ccccc1N1CCN(C[C@@H](O)COc2ccc(O)cc2)CC1    430
Oc1ccc(OCC(O)CNCCc2ccc(Cl)c(Cl)c2)cc1F (centres unmarked)    114
Cc1ccc(N2CCN(CC(O)COc3ccc(O)cc3)CC2)cc1 (centres unmarked)    70

[Q] Identify measured IC50 corresponding to Oc1ccc(OCC(O)CN2CCN(c3ccc(-c4ccccc4)cc3)CC2)cc1 (centres unmarked)
[A] 6950

[Q] Note IC50 for the compound shown: `Oc1ccc(OC[C@H](O)CN2CCN(c3cccc(Cl)c3)CC2)cc1`
[A] 257

---

molecular target: NMDA receptor (NR1 + NR2 subunits) (Rattus norvegicus, UniProt P35439+Q00960); test: Two electrode voltage clamp recording from Xenopus laevis oocytes (pH dependence of NMDA antagonism); format: cell-based; conditions: pH 7.6; Table 21; read-out: IC50 at pH 7.6
The threshold is 70 nM. Values of IC50 beneath it are tagged class 1; values meeting or exceeding it are tagged class 0.

[Q] Below 70 nM on IC50? Entry `O=C(COc1ccc(O)cc1)NCCNc1ccc(Cl)c(Cl)c1`
[A] class 0

[Q] Input `O=C(COc1ccc2[nH]c(=O)oc2c1)N1CCN(c2ccc(F)c(F)c2)CC1` ; condition: IC50 strictly below 70 nM. Does it hold?
[A] class 0

[Q] I wonder whether `CS(=O)(=O)Nc1ccc(CCCNCCNc2ccc(Cl)c(Cl)c2)cc1` has IC50 below 70 nM. Can you tell?
[A] class 1

[Q] Is 70 nM strictly greater than the compound's reported IC50? compound: `CS(=O)(=O)Nc1ccc(OCC(=O)N2CCN(c3ccc(Cl)c(Cl)c3)CC2)cc1`
[A] class 0

[Q] Just wondering, is IC50 of `O=C(COc1ccc2[nH]c(=O)oc2c1)NCCNc1ccc(Cl)c(Cl)c1` below 70 nM?
[A] class 0

---

target: NMDA receptor (NR1 + NR2 subunits) (Rattus norvegicus, UniProt P35439+Q00960); assay: Two electrode voltage clamp recording from Xenopus laevis oocytes (pH dependence of NMDA antagonism); assay type: cell-based; settings: pH 6.9; Table 18; read-out: IC50 at pH 6.9
pIC50: −log10 of the molar value.
We use 7 as the dividing line for pIC50: on or above the line is TRUE, below is FALSE.

O=c1[nH]c2ccc(OCC(O)CNCCc3ccc(Cl)c(Cl)c3)cc2o1 (stereo not drawn)    FALSE

[Q] For this compound, is measured pIC50 7 or higher? O=c1[nH]c2ccc(OCC(O)CNCCNc3ccc(Cl)cc3)cc2o1 (stereo not drawn)
[A] TRUE

[Q] Reported pIC50 reaches at least 7 for `O=c1[nH]c2ccc(OC[C@H](O)CN3CCN(c4ccc(Cl)c(Cl)c4)CC3)cc2o1` ?
[A] FALSE
